- Species on record: Rattus norvegicus
- protocolText: Open TG-GATES - Regimen: Single
- Format: toxicity, organism-based, Sprague-Dawley
- Set-up: regimen Single, gender Male, age 6 weeks
- experimentalSetup: in vivo, po, 1000 mg/kg, 24 h, tissue Blood, route gavage, dose level High
experimentalEndpoint: Hb (g/dL)
The response must be a number in g/dL with no trailing unit.

CCOC(=O)CCC(=O)O[C@H]1[C@H](O[C@@H]2[C@@H](C)[C@H](O[C@H]3C[C@@](C)(OC)[C@@H](O)[C@H](C)O3)[C@@H](C)C(=O)O[C@H](CC)[C@@](C)(O)[C@H](O)[C@@H](C)C(=O)[C@H](C)C[C@@]2(C)O)O[C@H](C)C[C@@H]1N(C)C [ERYTHROMYCIN ETHYLSUCCINATE]: 13.9

Input: Record request: Hb value, item `NC(N)=Nc1nc(CSCCC(N)=NS(N)(=O)=O)cs1`
Output: 13.3

Input: Record request: Hb value, item COc1ccc2[nH]c([S+]([O-])Cc3ncc(C)c(OC)c3C)nc2c1 (centres undefined)
Output: 12.9

Input: Record request: Hb value, item `COC1=CC(=O)C[C@@H](C)[C@]12Oc1c(Cl)c(OC)cc(OC)c1C2=O`
Output: 13.1

---

KIDNEY_R: recorded values
- Species on record: Rattus norvegicus
- protocolText: Open TG-GATES - Regimen: Daily Repeat
- Assay type: toxicity, organism-based, Sprague-Dawley
- Design: regimen Daily Repeat, gender Male, age 6 weeks
- experimentalSetup: in vivo, po, 0 mg/kg, […], tissue Kidney, route gavage, dose level Control, time 28 day
The response must be a number in g with no trailing unit.

Some molecules with recorded KIDNEY_R:
CC(C)OC(=O)C(C)(C)Oc1ccc(C(=O)c2ccc(Cl)cc2)cc1 [FENOFIBRATE]: 1.3
COc1ccc2[nH]c([S+]([O-])Cc3ncc(C)c(OC)c3C)nc2c1 (stereo not drawn): 1.3
CN(C)CCCN1c2ccccc2CCc2ccccc21: 1.4

Input: Record request: KIDNEY_R value, item `CN(C)CCN(Cc1cccs1)c1ccccn1`
Output: 1.3

Input: Record request: KIDNEY_R value, item CCOC(=O)CCC(=O)O[C@H]1[C@H](O[C@@H]2[C@@H](C)[C@H](O[C@H]3C[C@@](C)(OC)[C@@H](O)[C@H](C)O3)[C@@H](C)C(=O)O[C@H](CC)[C@@](C)(O)[C@H](O)[C@@H](C)C(=O)[C@H](C)C[C@@]2(C)O)O[C@H](C)C[C@@H]1N(C)C [ERYTHROMYCIN ETHYLSUCCINATE]
Output: 1.4

---

- Species: Rattus norvegicus
- protocolText: Open TG-GATES - Regimen: Single
- Format: toxicity, organism-based, Sprague-Dawley
- Parameters: regimen Single, gender Male, age 6 weeks
- experimentalSetup: in vivo, po, 1000 mg/kg, 6 h, tissue Plasma, route gavage, dose level High
experimentalEndpoint: DBIL (mg/dL)
The response must be a number in mg/dL with no trailing unit.

CC(C)OC(=O)C(C)(C)Oc1ccc(C(=O)c2ccc(Cl)cc2)cc1 [FENOFIBRATE]: 0.02

Input: Record request: DBIL value, item CCOC(=O)CCC(=O)O[C@H]1[C@H](O[C@@H]2[C@@H](C)[C@H](O[C@H]3C[C@@](C)(OC)[C@@H](O)[C@H](C)O3)[C@@H](C)C(=O)O[C@H](CC)[C@@](C)(O)[C@H](O)[C@@H](C)C(=O)[C@H](C)C[C@@]2(C)O)O[C@H](C)C[C@@H]1N(C)C [ERYTHROMYCIN ETHYLSUCCINATE]
Output: 0.012

Values were extracted from ChEMBL document CHEMBL3885861.
